# inhibition annotations
assay: growth inhibitors of tim10-1 mutant yeast, primary screen, luminescence, uHTS (AID 463190);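 further: mutant grown at 25 °C; 0% = DMSO wells with yeast and 100% = wells holding no yeast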; details: S. cerevisiae tim10-1 ts strain growth, BacTiter-Glo, 24 h; at 20 µM; active compounds read high
In all, about 330,000 compounds went through this assay and about 7,300 (2.2%) were called active. Many of the other results were omitted from the sample, so actives are more common in it than they were.
Form entry: value (%) — number only.

| compound | numericReadout |
| --- | --- |
| O=c1cccc(-c2ccc(Br)cc2)o1 | 4.04 |
| O=C(Nc1cc(-c2nn(CC(=O)N3CCCCC3)c(=O)c3ccccc23)ccc1N1CCOCC1)c1ccc(Cl)cc1 | 5.87 |

inhibition measured on S=C(NCc1ccc(Cl)cc1)NC12CC3CC(CC(C3)C1)C2 = 51.4

inhibition measured on O=C(COC(=O)CN1C(=O)C2CCCCC2C1=O)Nc1ccc(F)c(F)c1F (centres undefined) = 8.83

inhibition measured on CCn1cc(CNC(=O)c2cc([N+](=O)[O-])c(C)c([N+](=O)[O-])c2)cn1 = 14.3

inhibition measured on CC1=CC(C)(C)Nc2ccc(OC(=O)C(Cc3ccccc3)N3C(=O)C4CCCCC4C3=O)cc21 (centres undefined) = 25.9

inhibition measured on Cc1ccc(S(=O)(=O)NCCC(=O)NCc2ccc(Cl)cc2)cc1C = 8.85

inhibition measured on COCCN(C(=O)COC(=O)Cc1cccc(OC)c1)c1c(N)n(Cc2ccccc2)c(=O)[nH]c1=O = 0.462

inhibition measured on O=C(NC1CCCC1)c1cc(-c2ccccc2)on1 = -21.5
